Taken from patent US11319322B2.

molecular target: KIF5B-RET-BaF3 (Homo sapiens); construct: fused on or other part: P33176 (Kinesin-1 heavy chain); test: Growth inhibition of KIF5B-RET-BaF3 cells stably transfected with kinase (MTS); type: cell-based; details: 48 h, read-out: KIF5B-RET (IC50/nM)
reportedMetric: GI50 (nM)
Give bare numbers, in nM.

Below are worked cases with known answers.
1) CN1CCN(Cc2cc(NC(=O)c3cccc(Oc4nc(-c5cccnc5)nc5ccn(C)c45)c3)cc(C(F)(F)F)c2)CC1 [III-p-3]
3380
2) Cc1ccc(C(=O)Nc2ccc(CN3CCN(C)CC3)c(C(F)(F)F)c2)cc1Oc1nc(-c2cccc(O)c2)nc2ccn(C)c12 [III-m-15]
3930
3) Cc1ccc(C(=O)Nc2ccc(CN3CCN(C)CC3)c(C(F)(F)F)c2)cc1Oc1nc(-c2ccncc2)nc2ccn(C)c12 [III-m-10]
1050
4) Cc1ccc(Oc2nc(-c3ccccc3)nc3c2ncn3C)cc1C(=O)Nc1ccc(CN2CCN(C)CC2)c(C(F)(F)F)c1 [I-n-4]
2370
5) Cc1ccc(Oc2ncnc3c2ncn3C)cc1C(=O)Nc1ccc(CN2CCN(C)CC2)c(C(F)(F)F)c1 [I-n-13]
4850
6) Cc1ccc(C(=O)Nc2ccc(CN3CCN(C)CC3)c(C(F)(F)F)c2)cc1Oc1nc(-c2cccnc2)nc2[nH]ncc12 [II-m-20]
74.3

Known value: KIF5B-RET-BaF3 (Homo sapiens) GI50 of the molecule CN1CCN(Cc2ccc(NC(=O)c3cc(Oc4nc(-c5cccnc5)nc5nn(C)cc45)ccc3Cl)cc2C(F)(F)F)CC1 [IV-o-1] equals 1720

---

target: KIF5B-RET-BaF3 (Homo sapiens, UniProt P07949); construct: fused on or other part: P33176 (Kinesin-1 heavy chain); assay: Growth inhibition of KIF5B-RET-BaF3 cells stably transfected with kinase (MTS); format: cell-based; details: 48 h, read-out: KIF5B-RET (IC50/nM)
Sequence (P07949 whole entry, change not shown, the tested form may be a part): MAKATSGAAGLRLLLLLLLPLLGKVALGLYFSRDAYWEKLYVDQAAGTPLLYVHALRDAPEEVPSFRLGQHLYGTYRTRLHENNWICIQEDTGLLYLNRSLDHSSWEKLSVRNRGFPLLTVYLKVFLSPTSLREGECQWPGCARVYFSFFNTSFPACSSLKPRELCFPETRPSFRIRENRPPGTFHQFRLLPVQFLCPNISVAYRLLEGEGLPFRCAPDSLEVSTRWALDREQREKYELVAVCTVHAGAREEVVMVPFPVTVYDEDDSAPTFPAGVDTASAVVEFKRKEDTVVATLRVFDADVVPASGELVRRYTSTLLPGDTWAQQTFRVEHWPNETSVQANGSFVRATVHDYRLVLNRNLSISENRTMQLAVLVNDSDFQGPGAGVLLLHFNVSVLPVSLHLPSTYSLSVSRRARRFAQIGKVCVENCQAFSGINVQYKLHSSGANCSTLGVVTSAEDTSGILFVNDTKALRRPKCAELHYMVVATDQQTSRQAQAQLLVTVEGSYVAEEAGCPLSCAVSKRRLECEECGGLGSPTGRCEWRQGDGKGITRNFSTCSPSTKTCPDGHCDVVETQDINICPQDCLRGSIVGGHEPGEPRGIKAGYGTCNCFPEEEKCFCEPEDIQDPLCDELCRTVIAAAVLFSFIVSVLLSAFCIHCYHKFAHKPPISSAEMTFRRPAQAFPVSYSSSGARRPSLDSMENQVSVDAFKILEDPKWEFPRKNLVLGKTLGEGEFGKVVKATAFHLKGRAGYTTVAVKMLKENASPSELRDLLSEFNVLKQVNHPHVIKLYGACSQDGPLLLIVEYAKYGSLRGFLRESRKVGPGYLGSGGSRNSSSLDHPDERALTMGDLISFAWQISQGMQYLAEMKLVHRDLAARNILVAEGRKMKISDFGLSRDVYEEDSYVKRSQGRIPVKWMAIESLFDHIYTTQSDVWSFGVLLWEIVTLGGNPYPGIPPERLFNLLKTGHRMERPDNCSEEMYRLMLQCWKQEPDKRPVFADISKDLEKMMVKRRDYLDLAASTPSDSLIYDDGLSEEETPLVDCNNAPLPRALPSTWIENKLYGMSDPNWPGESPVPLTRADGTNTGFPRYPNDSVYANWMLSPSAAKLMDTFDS
Assign GI50 to each entry below.
Answers are plain numbers, in nM.

1. CN1CCN(Cc2ccc(C(=O)Nc3cccc(Oc4nc(-c5ccncc5)nc5ccsc45)c3)cc2C(F)(F)F)CC1 [VI-h-2]
493
2. Cc1ccc(Oc2nc(-c3ccncc3)nc3nn(C)cc23)cc1C(=O)Nc1ccc(CN2CCN(C)CC2)c(C(F)(F)F)c1 [IV-n-2]
173
3. Cc1ccc(Nc2nc(Oc3cc(C(=O)Nc4ccc(CN5CCN(C)CC5)c(C(F)(F)F)c4)ccc3C)c3cnn(C)c3n2)cc1 [II-m-13]
172
4. Cc1ccc(Oc2nc(-c3ccc(O)cc3)nc3cc[nH]c23)cc1NC(=O)c1ccc(CN2CCN(C)CC2)c(C(F)(F)F)c1 [III-j-13]
2400
5. CN1CCN(Cc2ccc(NC(=O)c3cc(Oc4nc(-c5ccncc5)nc5cc[nH]c45)ccc3Cl)cc2C(F)(F)F)CC1 [III-o-2]
13.4

Give me GI50 for each of these compounds, listed below.
1. Cc1ccc(C(=O)Nc2ccc(CN3CCN(C)CC3)c(C(F)(F)F)c2)cc1Oc1nc(-c2cccc(O)c2)nc2c1cnn2C [II-m-7]
2. CN1CCN(Cc2ccc(NC(=O)c3cc(Oc4nc(-c5cccc(Cl)c5)nc5nn(C)cc45)ccc3Cl)cc2C(F)(F)F)CC1 [IV-o-4]
3. CN1CCN(Cc2ccc(C(=O)Nc3cc(Oc4nc(-c5ccncc5)nc5c4cnn5C)ccc3Cl)cc2C(F)(F)F)CC1 [II-k-2]
4. Cc1ccc(Oc2nc(-c3ccc(O)cc3)nc3nn(C)cc23)cc1C(=O)Nc1ccc(CN2CCN(C)CC2)c(C(F)(F)F)c1 [IV-n-7]
5. CCC(=O)NC1CCN(c2ccc(NC(=O)c3ccc(C)c(Oc4nc(-c5ccncc5)nc5ccn(C)c45)c3)cc2C(F)(F)F)CC1 [III-v-8]

Resp:
1: 28.3; 2: 3110; 3: 114; 4: 3940; 5: 4340

Give me GI50 for each of these compounds, listed below.
1. Cc1ccc(Oc2nc(-c3ccc(O)cc3)nc3c2ncn3C)cc1C(=O)Nc1ccc(CN2CCN(C)CC2)c(C(F)(F)F)c1 [I-n-8]
2. CN1CCN(Cc2ccc(NC(=O)c3cccc(Oc4nc(-c5ccncc5)nc5ccn(C)c45)c3)cc2C(F)(F)F)CC1 [III-l-4]

Resp:
1. 1330
2. 11.3

Give me GI50 for each of these compounds, listed below.
1. CN1CCN(Cc2ccc(NC(=O)c3cc(Oc4nc(-c5cccc(N)c5)nc5nn(C)cc45)ccc3Cl)cc2C(F)(F)F)CC1 [IV-o-8]
2. CN1CCN(Cc2ccc(C(=O)Nc3cccc(Oc4nc(-c5ccncc5)nc5[nH]ncc45)c3)cc2C(F)(F)F)CC1 [II-h-4]
3. Cc1ccc(C(=O)Nc2ccc(CN3CCN(C)CC3)c(C(F)(F)F)c2)cc1Oc1nc(-c2ccncc2)nc2c1cnn2C(C)C [II-m-23]

Resp:
152
300
916

Give me GI50 for each of these compounds, listed below.
1. CN1CCN(Cc2ccc(C(=O)Nc3cc(Oc4nc(-c5ccsc5)nc5ccn(C)c45)ccc3Cl)cc2C(F)(F)F)CC1 [III-k-8]
2. Cc1ccc(C(=O)Nc2ccc(CN3CCN(C)CC3)c(C(F)(F)F)c2)cc1Oc1nc(N2CCOCC2)nc2c1cnn2C [II-m-15]
3. CN1CCN(Cc2ccc(C(=O)Nc3cc(Oc4nc(-c5cccnc5)nc5c4cnn5C)ccc3Cl)cc2C(F)(F)F)CC1 [II-k-1]
4. Cc1ccc(Oc2nc(-c3cccc(Cl)c3)nc3nn(C)cc23)cc1C(=O)Nc1ccc(CN2CCN(C)CC2)c(C(F)(F)F)c1 [IV-n-4]
5. CN1CCN(Cc2ccc(NC(=O)c3cccc(Oc4nc(-c5cccnc5)nc5ccn(C)c45)c3)cc2C(F)(F)F)CC1 [III-l-3]
6. Cc1ccc(-c2nc(Oc3cc(C(=O)Nc4ccc(CN5CCN(C)CC5)c(C(F)(F)F)c4)ccc3C)c3c(ccn3C)n2)cc1 [III-m-12]
7. Cc1ccc(NC(=O)c2cccc(C(F)(F)F)c2)cc1Oc1nc(-c2ccncc2)nc2nn(C)cc12 [IV-b-2]

Resp:
3580
18
1390
1710
1540
4280
4170
